Assay: Pharmacokinetic study in CD-1 mice (gavage, intravenous, intraperitoneal)
Assay type: in vivo
Conditions: male, CD-1, mouse, plasma, ip, 20 mg/kg, i.p. (20 mg/Kg per Table 3), individual animal
Reported half-life by item:

compound | measurement_unit | half-life
O=C(NCc1ccccc1)C(=O)[C@H](C[C@@H]1CCNC1=O)NC(=O)[C@H](CC1CCCCC1)NC(=O)c1ccc2ccccc2n1 [Example A42] | h | 6.52
O=C(NCc1ccccc1)C(=O)[C@H](C[C@@H]1CCNC1=O)NC(=O)[C@H](CC1CCCCC1)NC(=O)c1cc2ccccc2o1 [Example A9] | h | 3.28
Cc1cnc(C(=O)N[C@@H](CC2CCCCC2)C(=O)N[C@@H](C[C@@H]2CCCNC2=O)C(=O)C(=O)NCc2ccccc2)o1 [Example A241] | h | 4.78
O=C(NCc1ccccc1)C(=O)[C@H](C[C@@H]1CCCNC1=O)NC(=O)[C@H](CC1CCCCC1)NC(=O)c1cc2ccccc2o1 [Example A13] | h | 6.46
Cc1cnc(C(=O)N[C@@H](CC2CCCCC2)C(=O)N[C@@H](C[C@@H]2CCNC2=O)C(=O)C(=O)NCc2ccccc2)o1 [Example A242] | h | 4.85

====

Some compounds, each annotated with its measured half-life.
Test: Pharmacokinetic study in CD-1 mice (gavage, intravenous, intraperitoneal)
Format: in vivo
Details: male, CD-1, mouse, plasma, po, 20 mg/kg, p.o. (gavage 20 mg/Kg per Table 3), individual animal
measurement_label: half-life (h)

smi | measurement_label | measurement_unit | experimental_value
Cc1cnc(C(=O)N[C@@H](CC2CCCCC2)C(=O)N[C@@H](C[C@@H]2CCCNC2=O)C(=O)C(=O)NCc2ccccc2)o1 | half-life | h | 3.84
Cc1cnc(C(=O)N[C@@H](CC2CCCCC2)C(=O)N[C@@H](C[C@@H]2CCNC2=O)C(=O)C(=O)NCc2ccccc2)o1 | half-life | h | 4
O=C(NCc1ccccc1)C(=O)[C@H](C[C@@H]1CCNC1=O)NC(=O)[C@H](CC1CCCCC1)NC(=O)c1cc2ccccc2o1 | half-life | h | 1.13
O=C(NCc1ccccc1)C(=O)[C@H](C[C@@H]1CCNC1=O)NC(=O)[C@H](CC1CCCCC1)NC(=O)c1ccc2ccccc2n1 | half-life | h | 4.19

====

Assay: Pharmacokinetic study in CD-1 mice (gavage, intravenous, intraperitoneal)
Assay type: in vivo
Details: male, CD-1, mouse, plasma, ip, 20 mg/kg, i.p. (20 mg/Kg per Table 3), individual animal

smi | measurement_unit | Cmax
O=C(NCc1ccccc1)C(=O)[C@H](C[C@@H]1CCNC1=O)NC(=O)[C@H](CC1CCCCC1)NC(=O)c1ccc2ccccc2n1 | ng/mL | 3840
O=C(NCc1ccccc1)C(=O)[C@H](C[C@@H]1CCNC1=O)NC(=O)[C@H](CC1CCCCC1)NC(=O)c1cc2ccccc2o1 | ng/mL | 3520
Cc1cnc(C(=O)N[C@@H](CC2CCCCC2)C(=O)N[C@@H](C[C@@H]2CCNC2=O)C(=O)C(=O)NCc2ccccc2)o1 | ng/mL | 6400
Cc1cnc(C(=O)N[C@@H](CC2CCCCC2)C(=O)N[C@@H](C[C@@H]2CCCNC2=O)C(=O)C(=O)NCc2ccccc2)o1 | ng/mL | 4930
O=C(NCc1ccccc1)C(=O)[C@H](C[C@@H]1CCCNC1=O)NC(=O)[C@H](CC1CCCCC1)NC(=O)c1cc2ccccc2o1 | ng/mL | 2860

====

Experiment: Pharmacokinetic study in CD-1 mice (gavage, intravenous, intraperitoneal)
Type: in vivo
Details: male, CD-1, mouse, plasma, po, 20 mg/kg, p.o. (gavage 20 mg/Kg per Table 3), Mean of 3 mice; read-out: AUC INF_obs

compound | measurement_unit | AUC(0-inf)
O=C(NCc1ccccc1)C(=O)[C@H](C[C@@H]1CCNC1=O)NC(=O)[C@H](CC1CCCCC1)NC(=O)c1ccc2ccccc2n1 [Example A42] | ng·h/mL | 750
Cc1cnc(C(=O)N[C@@H](CC2CCCCC2)C(=O)N[C@@H](C[C@@H]2CCCNC2=O)C(=O)C(=O)NCc2ccccc2)o1 [Example A241] | ng·h/mL | 665
Cc1cnc(C(=O)N[C@@H](CC2CCCCC2)C(=O)N[C@@H](C[C@@H]2CCNC2=O)C(=O)C(=O)NCc2ccccc2)o1 [Example A242] | ng·h/mL | 493
O=C(NCc1ccccc1)C(=O)[C@H](C[C@@H]1CCNC1=O)NC(=O)[C@H](CC1CCCCC1)NC(=O)c1cc2ccccc2o1 [Example A9] | ng·h/mL | 589

====

Test: Pharmacokinetic study in CD-1 mice (gavage, intravenous, intraperitoneal)
Format: in vivo
Conditions: male, CD-1, mouse, plasma, po, 20 mg/kg, p.o. (gavage 20 mg/Kg per Table 3), individual animal; read-out: AUC INF_obs

smi | AUC(0-inf) (ng·h/mL)
O=C(NCc1ccccc1)C(=O)[C@H](C[C@@H]1CCNC1=O)NC(=O)[C@H](CC1CCCCC1)NC(=O)c1ccc2ccccc2n1 | 791
Cc1cnc(C(=O)N[C@@H](CC2CCCCC2)C(=O)N[C@@H](C[C@@H]2CCNC2=O)C(=O)C(=O)NCc2ccccc2)o1 | 436

====

Experiment: Pharmacokinetic study in CD-1 mice (gavage, intravenous, intraperitoneal)
Assay type: in vivo
Conditions: male, CD-1, mouse, plasma, ip, 20 mg/kg, i.p. (20 mg/Kg per Table 3), Mean of 3 mice

smi | measurement_unit | half-life
O=C(NCc1ccccc1)C(=O)[C@H](C[C@@H]1CCNC1=O)NC(=O)[C@H](CC1CCCCC1)NC(=O)c1ccc2ccccc2n1 | h | 5.46
Cc1cnc(C(=O)N[C@@H](CC2CCCCC2)C(=O)N[C@@H](C[C@@H]2CCCNC2=O)C(=O)C(=O)NCc2ccccc2)o1 | h | 4.36
Cc1cnc(C(=O)N[C@@H](CC2CCCCC2)C(=O)N[C@@H](C[C@@H]2CCNC2=O)C(=O)C(=O)NCc2ccccc2)o1 | h | 5.32
O=C(NCc1ccccc1)C(=O)[C@H](C[C@@H]1CCNC1=O)NC(=O)[C@H](CC1CCCCC1)NC(=O)c1cc2ccccc2o1 | h | 4.02

====

Test: Pharmacokinetic study in CD-1 mice (gavage, intravenous, intraperitoneal)
Type: in vivo
Details: male, CD-1, mouse, plasma, ip, 20 mg/kg, i.p. (20 mg/Kg per Table 3), Mean of 3 mice; read-out: AUC INF_obs
The entries below are paired with their reported AUC(0-inf).
measurement_label: AUC(0-inf) (ng·h/mL)

smi | measurement_label | experimental_value
O=C(NCc1ccccc1)C(=O)[C@H](C[C@@H]1CCNC1=O)NC(=O)[C@H](CC1CCCCC1)NC(=O)c1ccc2ccccc2n1 | AUC(0-inf) | 12000
O=C(NCc1ccccc1)C(=O)[C@H](C[C@@H]1CCNC1=O)NC(=O)[C@H](CC1CCCCC1)NC(=O)c1cc2ccccc2o1 | AUC(0-inf) | 8360
Cc1cnc(C(=O)N[C@@H](CC2CCCCC2)C(=O)N[C@@H](C[C@@H]2CCCNC2=O)C(=O)C(=O)NCc2ccccc2)o1 | AUC(0-inf) | 4180
Cc1cnc(C(=O)N[C@@H](CC2CCCCC2)C(=O)N[C@@H](C[C@@H]2CCNC2=O)C(=O)C(=O)NCc2ccccc2)o1 | AUC(0-inf) | 6960

====

Catalogue of compounds with associated MRT inf
Assay: Pharmacokinetic study in CD-1 mice (gavage, intravenous, intraperitoneal)
Assay type: in vivo
Conditions: male, CD-1, mouse, plasma, ip, 20 mg/kg, i.p. (20 mg/Kg per Table 3), Mean of 3 mice; read-out: MRT INF_obs

compound | MRT inf [h]
O=C(NCc1ccccc1)C(=O)[C@H](C[C@@H]1CCNC1=O)NC(=O)[C@H](CC1CCCCC1)NC(=O)c1ccc2ccccc2n1 [Example A42] | 4.93
Cc1cnc(C(=O)N[C@@H](CC2CCCCC2)C(=O)N[C@@H](C[C@@H]2CCCNC2=O)C(=O)C(=O)NCc2ccccc2)o1 [Example A241] | 1.44
O=C(NCc1ccccc1)C(=O)[C@H](C[C@@H]1CCNC1=O)NC(=O)[C@H](CC1CCCCC1)NC(=O)c1cc2ccccc2o1 [Example A9] | 3.99
Cc1cnc(C(=O)N[C@@H](CC2CCCCC2)C(=O)N[C@@H](C[C@@H]2CCNC2=O)C(=O)C(=O)NCc2ccccc2)o1 [Example A242] | 2.07

====

Experiment: Pharmacokinetic study in CD-1 mice (gavage, intravenous, intraperitoneal)
Assay type: in vivo
Details: male, CD-1, mouse, plasma, po, 20 mg/kg, p.o. (gavage 20 mg/Kg per Table 3), Mean of 3 mice; read-out: AUC last (oral exposure)

smi | AUC(0-t), ng·h/mL
Cc1cnc(C(=O)N[C@@H](CC2CCCCC2)C(=O)N[C@@H](C[C@@H]2CCCNC2=O)C(=O)C(=O)NCc2ccccc2)o1 | 663
O=C(NCc1ccccc1)C(=O)[C@H](C[C@@H]1CCNC1=O)NC(=O)[C@H](CC1CCCCC1)NC(=O)c1ccc2ccccc2n1 | 742
O=C(NCc1ccccc1)C(=O)[C@H](C[C@@H]1CCNC1=O)NC(=O)[C@H](CC1CCCCC1)NC(=O)c1cc2ccccc2o1 | 584
Cc1cnc(C(=O)N[C@@H](CC2CCCCC2)C(=O)N[C@@H](C[C@@H]2CCNC2=O)C(=O)C(=O)NCc2ccccc2)o1 | 488

This collection of values is drawn from patent US12152017B2.
